test system: HeLa; assay: Cytotoxicity against human HeLa cells assessed as growth inhibition at 10 uM by SRB assay; assay type: functional; details: read-out: GI
Recorded inhibition of growth at 10 µM, one value per entry.
Quick reminder: number only, in %, skip the unit.

Q) Field request: inhibition of growth at 10 µM | item: C[C@@H]1CC[C@H]2[C@@H](C)C(OCC#Cc3ccc(C#CCOC4O[C@@H]5O[C@@]6(C)CC[C@H]7[C@H](C)CC[C@@H]([C@H]4C)[C@@]57OO6)cc3)O[C@@H]3O[C@@]4(C)CC[C@@H]1[C@]32OO4 (some centres undefined)
A) 34

Q) Also check C[C@@H]1CC[C@H]2[C@@H](C)C(=O)O[C@@H]3O[C@@]4(C)CC[C@@H]1[C@]32OO4
A) 51

Q) Also check O=c1[nH]cc(F)c(=O)[nH]1
A) 62

Next:
Q) Field request: inhibition of growth at 10 µM | item: C[C@@H]1CC[C@H]2[C@@H](C)C(OCC#Cc3ccc(C#CCOC4O[C@@H]5O[C@@]6(C)CC[C@H]7[C@H](C)CC[C@@H]([C@H]4C)[C@@]57OO6)s3)O[C@@H]3O[C@@]4(C)CC[C@@H]1[C@]32OO4 (some centres undefined)
A) 35

###

assay: Cytotoxicity against human IMR32 cells assessed as growth inhibition at 10 uM by SRB assay; format: functional; details: IMR-32, read-out: GI
property: inhibition of growth at 10 µM

Q) Field request: inhibition of growth at 10 µM | item: C[C@@H]1CC[C@H]2[C@@H](C)C(OCCC#Cc3cccc(C#CCCOC4O[C@@H]5O[C@@]6(C)CC[C@H]7[C@H](C)CC[C@@H]([C@H]4C)[C@@]57OO6)c3)O[C@@H]3O[C@@]4(C)CC[C@@H]1[C@]32OO4 (stereo partly drawn)
A) 10%

Q) Also check C[C@@H]1CC[C@H]2[C@@H](C)C(OCC#Cc3ccc(C#CCOC4O[C@@H]5O[C@@]6(C)CC[C@H]7[C@H](C)CC[C@@H]([C@H]4C)[C@@]57OO6)s3)O[C@@H]3O[C@@]4(C)CC[C@@H]1[C@]32OO4 (stereo partly drawn)
A) 54%

Q) Also check C[C@@H]1CC[C@H]2[C@@H](C)C(=O)O[C@@H]3O[C@@]4(C)CC[C@@H]1[C@]32OO4
A) 24%

Next:
Q) Field request: inhibition of growth at 10 µM | item: C[C@@H]1CC[C@H]2[C@@H](C)C(OCCC#Cc3ccc(C#CCCOC4O[C@@H]5O[C@@]6(C)CC[C@H]7[C@H](C)CC[C@@H]([C@H]4C)[C@@]57OO6)cc3)O[C@@H]3O[C@@]4(C)CC[C@@H]1[C@]32OO4 (stereo partly drawn)
A) 11%

Q) Also check COc1cccc2c1C(=O)c1c(O)c3c(c(O)c1C2=O)C[C@@](O)(C(=O)CO)C[C@@H]3O[C@H]1C[C@H](N)[C@H](O)[C@H](C)O1
A) 69%

Q) Also check C[C@@H]1CC[C@H]2[C@@H](C)C(OCCC#Cc3ccc(-c4ccc(C#CCCOC5O[C@@H]6O[C@@]7(C)CC[C@H]8[C@H](C)CC[C@@H]([C@H]5C)[C@@]68OO7)cc4)cc3)O[C@@H]3O[C@@]4(C)CC[C@@H]1[C@]32OO4 (stereo partly drawn)
A) 4%

Q) Also check C[C@@H]1CC[C@H]2[C@@H](C)C(OCC#Cc3cccc(C#CCOC4O[C@@H]5O[C@@]6(C)CC[C@H]7[C@H](C)CC[C@@H]([C@H]4C)[C@@]57OO6)c3)O[C@@H]3O[C@@]4(C)CC[C@@H]1[C@]32OO4 (stereo partly drawn)
A) 40%

Q) Also check C[C@@H]1CC[C@H]2[C@@H](C)C(OCC#Cc3ccc(C#CCOC4O[C@@H]5O[C@@]6(C)CC[C@H]7[C@H](C)CC[C@@H]([C@H]4C)[C@@]57OO6)cc3)O[C@@H]3O[C@@]4(C)CC[C@@H]1[C@]32OO4 (stereo partly drawn)
A) 50%

###

test system: HeLa; assay: Cytotoxicity against human HeLa cells assessed as growth inhibition at 10 uM by SRB assay; type: functional; details: read-out: GI
property: inhibition of growth at 10 µM

Q) What inhibition of growth at 10 µM appears in the records for this compound with HeLa? C[C@@H]1CC[C@H]2[C@@H](C)C(OCCC#Cc3ccc(C#CCCOC4O[C@@H]5O[C@@]6(C)CC[C@H]7[C@H](C)CC[C@@H]([C@H]4C)[C@@]57OO6)s3)O[C@@H]3O[C@@]4(C)CC[C@@H]1[C@]32OO4 (some centres undefined)
A) 51%

Q) Also check C[C@@H]1CC[C@H]2[C@@H](C)C(OCCC#Cc3ccc(C#CCCOC4O[C@@H]5O[C@@]6(C)CC[C@H]7[C@H](C)CC[C@@H]([C@H]4C)[C@@]57OO6)cc3)O[C@@H]3O[C@@]4(C)CC[C@@H]1[C@]32OO4 (some centres undefined)
A) 20%

Q) Also check C[C@@H]1CC[C@H]2[C@@H](C)C(OCCC#Cc3ccc(-c4ccc(C#CCCOC5O[C@@H]6O[C@@]7(C)CC[C@H]8[C@H](C)CC[C@@H]([C@H]5C)[C@@]68OO7)cc4)cc3)O[C@@H]3O[C@@]4(C)CC[C@@H]1[C@]32OO4 (some centres undefined)
A) 18%

Q) Also check C[C@@H]1CC[C@H]2[C@@H](C)C(OCC#Cc3ccc(-c4ccc(C#CCOC5O[C@@H]6O[C@@]7(C)CC[C@H]8[C@H](C)CC[C@@H]([C@H]5C)[C@@]68OO7)cc4)cc3)O[C@@H]3O[C@@]4(C)CC[C@@H]1[C@]32OO4 (some centres undefined)
A) 47%

###

Recorded inhibition of growth at 50 µM, one value per entry.
tested on: MCF7; assay: Cytotoxicity against human MCF7 cells assessed as growth inhibition at 50 uM by SRB assay; format: functional; conditions: read-out: GI
Quick reminder: number only, in %, skip the unit.

Recorded results for 3 compounds are shown here.
Q) Field request: inhibition of growth at 50 µM | item: C[C@@H]1CC[C@H]2[C@@H](C)C(OCCC#Cc3ccc(C#CCCOC4O[C@@H]5O[C@@]6(C)CC[C@H]7[C@H](C)CC[C@@H]([C@H]4C)[C@@]57OO6)cc3)O[C@@H]3O[C@@]4(C)CC[C@@H]1[C@]32OO4 (some centres undefined)
A) 41

Q) Also check C[C@@H]1CC[C@H]2[C@@H](C)C(OCC#Cc3ccc(C#CCOC4O[C@@H]5O[C@@]6(C)CC[C@H]7[C@H](C)CC[C@@H]([C@H]4C)[C@@]57OO6)cc3)O[C@@H]3O[C@@]4(C)CC[C@@H]1[C@]32OO4 (some centres undefined)
A) 45

Q) Also check C[C@@H]1CC[C@H]2[C@@H](C)C(OCCC#Cc3ccc(C#CCCOC4O[C@@H]5O[C@@]6(C)CC[C@H]7[C@H](C)CC[C@@H]([C@H]4C)[C@@]57OO6)s3)O[C@@H]3O[C@@]4(C)CC[C@@H]1[C@]32OO4 (some centres undefined)
A) 41

Now take the following compound into account.
Q) Field request: inhibition of growth at 50 µM | item: C[C@@H]1CC[C@H]2[C@@H](C)C(OCCC#Cc3ccc(-c4ccc(C#CCCOC5O[C@@H]6O[C@@]7(C)CC[C@H]8[C@H](C)CC[C@@H]([C@H]5C)[C@@]68OO7)cc4)cc3)O[C@@H]3O[C@@]4(C)CC[C@@H]1[C@]32OO4 (some centres undefined)
A) 38

###

assay: Cytotoxicity against human IMR32 cells assessed as growth inhibition at 50 uM by SRB assay; assay type: functional; details: IMR-32, read-out: GI
Label rule, in plain words: inhibition of growth at 50 µM of 30% and up is Met, under 30% is Not met.

Here's what some known entries look like.
Q) hey, is inhibition of growth at 50 µM for this one >= 30%? C[C@@H]1CC[C@H]2[C@@H](C)C(OCC#Cc3ccc(C#CCOC4O[C@@H]5O[C@@]6(C)CC[C@H]7[C@H](C)CC[C@@H]([C@H]4C)[C@@]57OO6)cc3)O[C@@H]3O[C@@]4(C)CC[C@@H]1[C@]32OO4 (some centres undefined)
A) Met

Q) Also check C[C@@H]1CC[C@H]2[C@@H](C)C(OCCC#Cc3ccc(-c4ccc(C#CCCOC5O[C@@H]6O[C@@]7(C)CC[C@H]8[C@H](C)CC[C@@H]([C@H]5C)[C@@]68OO7)cc4)cc3)O[C@@H]3O[C@@]4(C)CC[C@@H]1[C@]32OO4 (some centres undefined)
A) Not met

Q) Also check C[C@@H]1CC[C@H]2[C@@H](C)C(OCC#Cc3ccc(C#CCOC4O[C@@H]5O[C@@]6(C)CC[C@H]7[C@H](C)CC[C@@H]([C@H]4C)[C@@]57OO6)s3)O[C@@H]3O[C@@]4(C)CC[C@@H]1[C@]32OO4 (some centres undefined)
A) Met

Next:
Q) hey, is inhibition of growth at 50 µM for this one >= 30%? C[C@@H]1CC[C@H]2[C@@H](C)C(=O)O[C@@H]3O[C@@]4(C)CC[C@@H]1[C@]32OO4
A) Met

Q) Also check C[C@@H]1CC[C@H]2[C@@H](C)C(OCCC#Cc3ccc(C#CCCOC4O[C@@H]5O[C@@]6(C)CC[C@H]7[C@H](C)CC[C@@H]([C@H]4C)[C@@]57OO6)cc3)O[C@@H]3O[C@@]4(C)CC[C@@H]1[C@]32OO4 (some centres undefined)
A) Met

Q) Also check C[C@@H]1CC[C@H]2[C@@H](C)C(OCC#Cc3cccc(C#CCOC4O[C@@H]5O[C@@]6(C)CC[C@H]7[C@H](C)CC[C@@H]([C@H]4C)[C@@]57OO6)c3)O[C@@H]3O[C@@]4(C)CC[C@@H]1[C@]32OO4 (some centres undefined)
A) Met

Q) Also check C[C@@H]1CC[C@H]2[C@@H](C)C(OCC#Cc3ccc(-c4ccc(C#CCOC5O[C@@H]6O[C@@]7(C)CC[C@H]8[C@H](C)CC[C@@H]([C@H]5C)[C@@]68OO7)cc4)cc3)O[C@@H]3O[C@@]4(C)CC[C@@H]1[C@]32OO4 (some centres undefined)
A) Met

Q) Also check C[C@@H]1CC[C@H]2[C@@H](C)C(OCCC#Cc3ccc(C#CCCOC4O[C@@H]5O[C@@]6(C)CC[C@H]7[C@H](C)CC[C@@H]([C@H]4C)[C@@]57OO6)s3)O[C@@H]3O[C@@]4(C)CC[C@@H]1[C@]32OO4 (some centres undefined)
A) Not met
